The origin of these recorded values is PubChem BioAssay (NCI).

# System: NCI/ADR-RES ovarian
# Method: NCI tumour cell line growth inhibition, 48 h
Assay metric: TGI

[[record]]
molecule = "C#CCSC(C=C=C)P(=O)(OC(C)C)OC(C)C (centres undefined)"
endpoint_value = "> 100 µM"

[[record]]
molecule = "O=[N+]([O-])c1cccc([As]=[As]c2cccc([N+](=O)[O-])c2)c1 (centres undefined)"
endpoint_value = "0.447 µM"

[[record]]
molecule = "CCSCCCN(CCCSCC)CCCSCC"
endpoint_value = "> 100 µM"

[[record]]
molecule = "COc1cc(/C=C2/C[C@H]3[C@@H]4CC=C5C[C@@H](OC(C)=O)CC[C@]5(C)[C@H]4CC[C@]3(C)NC2=O)cc(OC)c1OC"
endpoint_value = "54.4 µM"


Could you tell me TGI for each of these molecules? They are listed below.
1. O=C(OCCN=c1c2ccccc2ccc2ccccc12)c1ccc([N+](=O)[O-])cc1
2. CCOC(=O)c1cc2c3c(c(C(C)=O)c(O)c2[nH]1)N(CC(C)CC)CC3 (centres undefined)

1: > 100 µM; 2: > 100 µM

Quick batch: TGI for everything below.
1. CN1CC[C@@H](c2c(O)cc(O)c3c(=O)cc(-c4ccccc4Cl)oc23)[C@@H]1CO
2. Cc1c2c(n(CCc3ccc(Cl)cc3)c1C)NC(c1ccccc1)C(C#N)S2(=O)=O (centres undefined)

1. > 10 µM
2. > 100 µM

Which TGI is listed for COc1ccc(NC(C)=O)cc1N1C(=O)/C(=C\c2cc(OC)c(OC)c(OC)c2)SC1c1ccccc1 (centres undefined) ? > 100 µM
